- Tested on: ATP;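 also: ATP exposure 15 min at 22 °C before imaging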
- assay info: switch fluorescence ratio, 500 uM ATP over buffer (Cy3 cluster intensity, sum of 5 cycles each) (fold (ratio)); higher = stronger signal-on switching upon ATP binding; sequences stand for … in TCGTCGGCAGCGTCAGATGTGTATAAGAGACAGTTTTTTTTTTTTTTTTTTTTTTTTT…TC
- study conditions: aptamer strand: ATP DNA aptamer (quencher-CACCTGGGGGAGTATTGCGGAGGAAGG + anchor), 100 nM annealed; ATP concentration: 500 uM
switch fluorescence ratio: recorded values
API doc: respond with a numeric literal and nothing else, no unit.

// below: answered sequences
AGGAAAAAGC	1.02
GGGGAGGTTC	1
TCAATCGGAA	1.06
AAAATGGGCA	1.02
TATGGTTCGC	0.997
TGGTATAGGG	1.01
ACGGAGGATT	1.04
GACGTCGGGA	1.01
TGAGAAGTTT	0.992
TTTACGGTGA	1.02

Data request: Reported switch fluorescence ratio for GGTATGAAGG : what is it?
Data returned: 0.966

Data request: Reported switch fluorescence ratio for AGTAATTAGG : what is it?
Data returned: 1.03

Data request: Reported switch fluorescence ratio for GGCCAACGTA : what is it?
Data returned: 0.997

Data request: Reported switch fluorescence ratio for TTGATAGAAA : what is it?
Data returned: 1.01

Data request: Reported switch fluorescence ratio for GGGGGATGAA : what is it?
Data returned: 0.991

Data request: Reported switch fluorescence ratio for TAAAATTTAA : what is it?
Data returned: 1.01

Data request: Reported switch fluorescence ratio for AATTTGGCCC : what is it?
Data returned: 1.01

Data request: Reported switch fluorescence ratio for AGGAGCTTGA : what is it?
Data returned: 1.03

Data request: Reported switch fluorescence ratio for TCATTGAAGT : what is it?
Data returned: 0.991

Data request: Reported switch fluorescence ratio for GGGTGTATCG : what is it?
Data returned: 0.994

----------
- System: ATP;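 also: ATP exposure 15 min at 22 °C before imaging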
- assay info: switch fluorescence ratio, 500 uM ATP over buffer (Cy3 cluster intensity, sum of 5 cycles each) (fold (ratio)); higher = stronger signal-on switching upon ATP binding; sequences stand for … in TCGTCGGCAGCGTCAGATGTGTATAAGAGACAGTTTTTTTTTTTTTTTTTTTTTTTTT…TC
- study conditions: aptamer strand: ATP DNA aptamer (quencher-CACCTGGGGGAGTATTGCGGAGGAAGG + anchor), 100 nM annealed; ATP concentration: 500 uM
reported metric: switch fluorescence ratio
API doc: respond with a numeric literal and nothing else, no unit.

// below: answered sequences
TAGGAGAGAC	0.998
TTTGTTCGTG	0.96
GCTTGCGGGA	1.03
TCATGATTTT	0.999
GCACGGCGTA	1.04
TTGGTAAAAT	0.978
GGTCAGGGGC	1.08
AGGTAAAAAG	1.02

Data request: Item AGGTTAAGTA with ATP - switch fluorescence ratio?
Data returned: 1

Data request: Item GTTATTCGGT with ATP - switch fluorescence ratio?
Data returned: 0.991

Data request: Item TAGGGTTAAT with ATP - switch fluorescence ratio?
Data returned: 1.03

Data request: Item GCTAAAGGGG with ATP - switch fluorescence ratio?
Data returned: 1.19

Data request: Item CACTGGTTAA with ATP - switch fluorescence ratio?
Data returned: 0.995

Data request: Item TTTTACCTTT with ATP - switch fluorescence ratio?
Data returned: 1

Data request: Item CCGATGGTCT with ATP - switch fluorescence ratio?
Data returned: 1.25
